- EXPERIMENT DESCRIPTION: Selectivity index, ratio of CC50 for human HepG2.2.15 cells to IC50 for HBV infected in human HepG2.2.15 cells assessed as inhibition of viral DNA replication
- Format: toxicity, cell-based
- MEASUREMENT CONDITIONS: HepG2.2.15 cells, read-out: Ratio CC50/IC50
Here, each record is paired with measured selectivity ratio data.

# COMPOUND STRUCTURE STRING, selectivity ratio
records = [
    ("O=C(Cc1csc(COc2ccccc2)n1)N1CCc2cc(Br)ccc21", "> 132"),
    ("O=C(Cc1csc(COc2ccccc2F)n1)N1CCc2ccccc21", "> 384"),
    ("O=C(Cc1csc(COc2ccccc2F)n1)N1CCc2cc(Br)ccc21", "> 116"),
    ("O=C(Cc1csc(COc2cccc(Br)c2)n1)N1CCc2ccccc21", "> 59.5"),
    ("O=C(Cc1csc(COc2ccccc2)n1)N1CCc2ccc(Cl)cc21", "> 80.7"),
    ("Cc1cccc(OCc2nc(CC(=O)N3CCc4ccccc43)cs2)c1", "> 67.6"),
    ("O=C(Cc1csc(COc2ccccc2)n1)N1CCc2cc(Cl)ccc21", "> 217"),
    ("O=C(Cc1csc(COc2ccccc2C(F)(F)F)n1)N1CCc2ccccc21", "> 75.8"),
    ("O=C(Cc1csc(COc2ccc(C(F)(F)F)cc2)n1)N1CCc2ccccc21", "> 76.9"),
    ("O=C(Cc1csc(COc2ccccc2)n1)N1CCc2ccccc21", "> 2.91"),
    ("O=C(Cc1csc(COc2ccccc2)n1)N1CCc2cccc(Br)c21", "> 16.3"),
    ("O=C(Cc1csc(COc2ccccc2)n1)N1CCc2c(F)cccc21", "> 12.8"),
    ("O=C(Cc1csc(COc2cccc(C(F)(F)F)c2)n1)N1CCc2ccccc21", "> 14.2"),
    ("O=C(Cc1csc(COc2ccccc2)n1)N1CCc2cccc(Cl)c21", "> 49.5"),
    ("Nc1ccn([C@@H]2CS[C@H](CO)O2)c(=O)n1", "> 1000"),
    ("COc1ccc2c(c1)CCN2C(=O)Cc1csc(COc2ccccc2)n1", "> 17.6"),
]
